Assay: recombinant UMI read abundance after kanamycin selection (control-corrected) (log10(CPM+1)); higher = more efficient recombination; extreme values may be limits of the assay; sequences stand for … in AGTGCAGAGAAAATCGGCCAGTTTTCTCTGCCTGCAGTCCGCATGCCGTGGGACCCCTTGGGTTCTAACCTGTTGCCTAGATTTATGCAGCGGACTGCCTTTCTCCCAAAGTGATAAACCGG…AGGTTGGTTTCACT; site = the 11-nt donor;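 note: IS621 bridge recombinase in Escherichia coli cells against a fixed T5 target plasmid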
recombinant UMI read abundance (log10) vs 0.01: at or above is Criterion met, below is Criterion not met.

Some entries whose results are on file:
[[record]]
seq_string = "CTCCCTACATGGACCGGTTTTCCCGGTAATCCGTATTTGAT (site CTCCCTACTTT)"
class_name = "Criterion met"

[[record]]
seq_string = "CGATGATCATGGACCGGTTTTCCCGGTAATCCGTATTTGCC (site CGATCATCTAG)"
class_name = "Criterion not met"

[[record]]
seq_string = "CCATACTCATGGACCGGTTTTCCCGGTAATCCGTATTTGCA (site CCATACTCTTG)"
class_name = "Criterion met"

[[record]]
seq_string = "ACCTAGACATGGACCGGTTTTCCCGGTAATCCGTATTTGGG (site ACCTACACTCC)"
class_name = "Criterion met"

[[record]]
seq_string = "GTGCATCCATGGACCGGTTTTCCCGGTAATCCGTATTTGGT (site GTGCATACTAC)"
class_name = "Criterion met"

[[record]]
seq_string = "ATCCAAGCATGGACCGGTTTTCCCGGTAATCCGTATTTGGG (site ATCCAAGCTCG)"
class_name = "Criterion met"

[[record]]
seq_string = "ACTGTACCATGGACCGGTTTTCCCGGTAATCCGTATTTGCA (site ACTGTACCTTG)"
class_name = "Criterion not met"

[[record]]
seq_string = "CTGCTACCATGGACCGGTTTTCCCGGTAATCCGTATTTGCG (site CTGCTACCTAG)"
class_name = "Criterion not met"

[[record]]
seq_string = "GATACTGCATGGACCGGTTTTCCCGGTAATCCGTATTTGCC (site GATACTGCTGG)"
class_name = "Criterion met"

[[record]]
seq_string = "TGGGAGACATGGACCGGTTTTCCCGGTAATCCGTATTTGCA (site TGGGAGACTTG)"
class_name = "Criterion met"


Ask: Is reported recombinant UMI read abundance (log10) greater than or equal to 0.01 here: CAATCATCATGGACCGGTTTTCCCGGTAATCCGTATTTGCC (site CAATCATCTGG)
Reply: Criterion met

Ask: For this sequence, is measured recombinant UMI read abundance (log10) 0.01 or higher? GGTAAGTCATGGACCGGTTTTCCCGGTAATCCGTATTTGTT (site GGTAAGTCTAA)
Reply: Criterion met

Ask: Form field: recombinant UMI read abundance (log10) at least 0.01? Entry: AGAATGACATGGACCGGTTTTCCCGGTAATCCGTATTTGCA (site AGAATGACTTG)
Reply: Criterion met

Ask: In plain terms: is recorded recombinant UMI read abundance (log10) at least 0.01 for AGGACTCCATGGACCGGTTTTCCCGGTAATCCGTATTTGAC (site AGGACTCCTGT) ?
Reply: Criterion met

Ask: Dear colleague, could you confirm whether GATTGCCCATGGACCGGTTTTCCCGGTAATCCGTATTTGAT (site GTTTGCCCTAT) has recombinant UMI read abundance (log10) at or above 0.01?
Reply: Criterion not met

Ask: Hi team, for TGGCCGGCATGGACCGGTTTTCCCGGTAATCCGTATTTGCC (site TGGCCGGCTGA) , is the recorded recombinant UMI read abundance (log10) at or above 0.01?
Reply: Criterion not met

Ask: Item CCAGTATCATGGACCGGTTTTCCCGGTAATCCGTATTTGAA (site ACAGTATCTTG) with recombinant UMI read abundance (log10) of 0.01 or above?
Reply: Criterion met
